# assay.details: Quantitative High-Throughput drug screen in 47 multiple myeloma cell lines against the NCATS MIPE library collection: JIM1_ECACC cell viability assay (AID 1918964)
# run.conditions: JIM1 myeloma viability, CellTiter-Glo ATP luminescence, 48 h; series mostly up to 45.8 µM
Records with an inconclusive call do not appear. The source made the active and inactive calls. Calls come from the whole dose curve; as a rule, active = well fitted cell-killing curve with a large enough effect; inconclusive = small, poorly fitted or top-dose-only effect, or effect the other way; inactive = no such curve, though single readings can be large or run the other way.
I would appreciate it if you answered using one of these outcomes: active, inactive

Answered cases to consult:
Short answer needed: outcome of this test for `C=C(C)[C@@H]1CC[C@]2(C(=O)O)CC[C@]3(C)[C@H](CC[C@@H]4[C@@]5(C)CC[C@H](O)C(C)(C)[C@@H]5CC[C@]43C)[C@@H]12` ?
inactive

Param item: `CNC(=O)c1ccc(Nc2cc(Nc3ccccc3S(=O)(=O)C(C)C)c3cc[nH]c3n2)nc1`
active

Param item: `CCc1cnn2c(NCc3ccc[n+]([O-])c3)cc(N3CCCC[C@@H]3CCO)nc12`
active

---
Short answer needed: outcome of this test for `CCC(C=C[C@@H]1OC(=O)C=C[C@H]1C)=C[C@H](C)CC=CC(C)=C[C@@H](C)C(=O)[C@@H](C)[C@H](O)[C@@H](C)CC(C)=CC(=O)O` ?
active

###

# assay.details: Quantitative High-Throughput drug screen in 47 multiple myeloma cell lines against the NCATS MIPE library collection: AMO1_DSMZ cell viability assay (AID 1918927; note: nearly all actives have a fitted effect of over 30% in size)
# run.conditions: AMO1 myeloma cells viability, CellTiter-Glo ATP luminescence, 48 h; series mostly up to 45.8 µM
Records with an inconclusive call do not appear. Active and inactive are the calls of the source. The call rests on the fitted dose curve; in most records, active means well fitted cell-killing curve with a large enough effect; inconclusive means small, poorly fitted or top-dose-only effect, or effect the other way; inactive means no such curve, though single readings can be large or run the other way.
I would appreciate it if you answered using one of these outcomes: active, inactive

Short answer needed: outcome of this test for `CC1(C)CC(O)CC(C)(C)N1[O]` ?
inactive

Param item: `CC(C)Oc1ccc(C(=O)N[C@H](CNC(=O)CN(C)C)Cc2ccc(-c3cn4cccc([C@H](C)O)c4n3)cc2)cc1Cl`
active

Param item: COc1cc(O)c2c(c1)C1OC1C[C@H](O)[C@H](O)C(=O)C=CC[C@H](C)OC2=O (some centres undefined)
active

Now take the following compound into account.
Short answer needed: outcome of this test for C[C@@H]1C(=O)O[C@H]2CC34[C@H]5C[C@@H](C(C)(C)C)C36[C@H](OC(=O)[C@@H]6O)O[C@@]4(C(=O)O5)[C@]21O (some centres undefined) ?
inactive

###

# assay.details: qHTS of pediatric cancer cell lines to identify multiple opportunities for drug repurposing: Primary screen for BT-12 cells (AID 1347101); note: nearly all actives have a fitted effect of over 25% in size
# run.conditions: BT-12 viability, CellTiter-Glo luminescence, 48 h; series mostly up to 57.3 µM
Results filed as inconclusive are left out. Calls of active or inactive are those of the source. Calls follow the shape of the dose curve; as a rule, active = well fitted cell-killing curve with a large enough effect; inconclusive = small, poorly fitted or top-dose-only effect; inactive = flat fitted curve, though single readings scatter.
I would appreciate it if you answered using one of these outcomes: active, inactive

Short answer needed: outcome of this test for `O=C(c1ccc(F)cc1)N1CCC[C@H](c2nc(-c3ccc(F)cc3)no2)C1` ?
inactive

Param item: `CC(C)N1[N]C(=C2C=c3cc(O)ccc3=N2)c2c(N)ncnc21`
active

Param item: `CC(C)NC[C@@H](C(=O)N1CCN(c2ncnc3c2[C@H](C)C[C@H]3O)CC1)c1ccc(Cl)cc1`
active

Now take the following compound into account.
Short answer needed: outcome of this test for `Cn1cc(-c2ccc3ncc(Cc4ccc5ncccc5c4)n3n2)cn1` ?
inactive

###

# assay.details: qHTS of pediatric cancer cell lines to identify multiple opportunities for drug repurposing: Confirmatory screen for RD cells (AID 1347124);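 note: cells exposed to compound for 48 h before viability readout; nearly all actives have a fitted effect of over 65% in size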
# run.conditions: RD rhabdomyosarcoma cell viability; series mostly up to 45.9 µM
Inconclusive results are not listed. Activity calls are given as the source filed them. Calls come from the whole dose curve; as a rule, active = well fitted cell-killing curve with a large enough effect; inconclusive = small, poorly fitted or top-dose-only effect, or effect the other way; inactive = no such curve, though single readings can be large or run the other way.
I would appreciate it if you answered using one of these outcomes: active, inactive

Short answer needed: outcome of this test for `C=CC(=O)N1CCc2ccc(-n3c(=O)ccc4cnc5ccc(-c6cnn(C)c6)cc5c43)cc21` ?
active

Param item: `CC(=O)O[C@H]1C[C@@H]2CC[C@H]3[C@H]4C[C@H]([N+]5(C)CCCCC5)[C@@H](OC(C)=O)[C@@]4(C)CC[C@@H]3[C@@]2(C)C[C@H]1N1CCCCC1`
inactive

Param item: `COc1cccc2c1C(=O)c1c(O)c3c(c(O)c1C2=O)C[C@@](O)(C(C)=O)C[C@H]3O[C@H]1C[C@H](N)[C@H](O)[C@H](C)O1`
active

Param item: `CC(C)(O)Cn1c(NC(=O)c2ccc(-c3cn[nH]c3)s2)nc2cc(CN3CCOCC3)ccc21`
active

Param item: `C[C@H](NCc1ccc2c(c1)nc(NC(=O)c1ccc(-c3cn[nH]c3)s1)n2CCc1ccccc1)C(C)(C)C`
active

Param item: CC(C(C)N1CC(=O)NC(=O)C1)N1CC(=O)NC(=O)C1 (stereo not drawn)
inactive

Param item: `CC(=O)N1CCN(c2ccc(OCc3nn(C)c(C)c3-c3cccc4c(CCCOc5cccc6ccccc56)c(C(=O)O)n(Cc5cccnc5)c34)cc2)CC1`
inactive

Param item: `COc1cc(C[C@@H](CO)[C@H](CO)Cc2ccc(O)c(OC)c2)ccc1O`
active

Origin of the recorded values: PubChem BioAssay (NCATS)
